Hey, just so you know, these numbers are from the supplement of paper PMC9170038.

Tested on: MS2 coat protein
Assay: apparent KD of MS2 coat protein; designed switch direction (-1 OFF switch, 1 ON switch): -1; higher = weaker reporter binding
Conditions: input ligand: FMN 200 uM
# label = yes if apparent KD of MS2 coat protein >= 60 nM else no

Sequence Input	Assigned Label
GCUGGUCAAGGAUAUACAUGAGGAUCACCCAUGUAGAUCAACCAGCGAUAGCUGGAAUGUAGAAGGUGACCAGC [E3/5-C1] (Eterna round: R97, puzzle: Exclusion 3)	no
GGCAGACAUGAGGAUCACCCAUGUGAGGAUAUGGUGCGAUCGUCGAUAGACGAUAGCACCAGAAGGCACAUGCC [Mat - Exclusion 1 - Eli Mod - D4] (Eterna round: R97, puzzle: Exclusion 1)	yes
CUGAUGUCAGGAUAUCGGUGGCUCACUUGUGUGUGCCAGUUCGAGAAGGGACAUGAGGAUCACCCAUGUUUUUA [Exclusion 4 (Mod2 of #36 by Marzena11)] (Eterna round: R97, puzzle: Exclusion 4)	yes
CCCGUACAUGAGGAUCACCCAUGUCAGGAUAUCUAAUCAUGCUGUAAGGCACAUUGAGGGAGAAGGGACAUAUU [EX1 B.29] (Eterna round: R97, puzzle: Exclusion 1)	no
GAAUUGUGAGGAUAUUAGUUGUACGUCAAUAGACGUAUAAGUGAGAAGGCACAUGAGGAUCACCCAUGUUCCUG [salish99_ex4_r4_401] (Eterna round: R97, puzzle: Exclusion 4)	no
AUCGUGUGAGGAUAUCGAUCAUGGAGGUCUAGGUCCAUGCGCGAGAAGGCACAUGAGGAUCACCCAUGUAAUGG [jl-ex4-4.30 ViennaUCT mod] (Eterna round: R97, puzzle: Exclusion 4)	yes
ACAUGAGGGAAGGGAGGAGGGACAUGAGGAUCACCCAUGUCUCAGGAUAUAGAAGAAGAAAGAAACUAGAAGGGAGAGGAGGGU [Kawasakiqro] (Eterna round: R96, puzzle: Exclusion NG 3)	no
GUCAUCUAUCAUGGGAUAAACAUGAGGAUCACCCAUGUAUACAAGUUUUUUGCUCGUCUUAUAAUAAGAUAGAUGAC [Antenna 4 - Jieux - Sensor, turn-off variant 1] (Eterna round: R97, puzzle: Sensor, turn-off variant 1)	no
CUGAGGUAGCGGUCCUAUGACAUGAGGAUCACCCAUGUACCUUGCUACAAGCUUUUUGCUCGUCUUAUGAUUCUCGG [JL Atriat mod 8] (Eterna round: R96, puzzle: Sensor v3, turn-off variant 1)	yes
GGCAUCGGAGGAUAUAUUUAUGGUGAUACCCGAAGCUUUCUACUUGAGGAUCACCCAAGUAGAAGGCCGAUGCC [jl-ex2.4.82 ViennaUCT mod] (Eterna round: R97, puzzle: Exclusion 2)	no
CUAAUUCAAGGAUAUACAUGAGGAUCACCCAUGUGAGGGAGUGACAAGUUGUCGGGAUGUAGAAGGUGACCUAG [Eternabot (L2) Solution 36] (Eterna round: R97, puzzle: Exclusion 3)	yes
GUCACAUGGGUGUAGAAUCACAUGAGGAUCACCCAUGUGACUAACAAGCUUUUUGCUCGUCUUAUGUCUAUGUGAAU [Stov1/17-A2] (Eterna round: R97, puzzle: Sensor, turn-off variant 1)	no
GAGAACUGAGGAUAUACAUGAGGAUCACCCAUGUUGAGAAGAAAGUAUAAAAGAUUGUGUAGAAGGCAGAGAGA [JR_Ex3_Sub069] (Eterna round: R97, puzzle: Exclusion 3)	no
UGCUACGGAGGAUAUACAUGAGGAUCACCCAUGUGAUAGAUUAUCGCGAAAGCGUAAUGUAGAAGGCCGUAGCU [jl-ex3-4.11 jl mod] (Eterna round: R97, puzzle: Exclusion 3)	yes
ACCUUACUGGUCAGGAUAUACAGUCUUUGGUGUGUGUAGAAGGGACAUGAGGAUCACCCAUGUAGGUUGUUUUA [alecazam62b] (Eterna round: R97, puzzle: Brourd's mod of Exclusion 4)	yes
CAUUAGCGAGGAUAUACAUGAGGAUCACCCAUGUGAUCCUAAGGCUGAUGAAGCCUAUGUAGAAGGCGCAAAUU [jl-ex3.4.54 ViennaUCT mod] (Eterna round: R97, puzzle: Exclusion 3)	yes
GCCUUAUCCGUCAGGAUAUACAGCCGCUCCCUGUUGUAGAAGGGACAUGAGGAUCACCCAUGUACGUACCACCC [alecazam9] (Eterna round: R97, puzzle: Brourd's mod of Exclusion 4)	no
